Entries and their glycan array binding signal (z-score) values follow.
target: Gal(a1-4)Gal(b1-4)Gal; experiment: glycan array binding signal (z-score within array); higher = stronger binding; details: glycan notation: IUPAC condensed, linker removed
The entries come from a sample that favours the strongest signals as a whole.
Respond numerically, and do not add a unit to the figure.

Please review the entries below; each comes with its answer.
INSERT INTO results (binder, property, measurednumber) VALUES
  ('FBG3 (Homo sapiens), Q9H4M3 (protein) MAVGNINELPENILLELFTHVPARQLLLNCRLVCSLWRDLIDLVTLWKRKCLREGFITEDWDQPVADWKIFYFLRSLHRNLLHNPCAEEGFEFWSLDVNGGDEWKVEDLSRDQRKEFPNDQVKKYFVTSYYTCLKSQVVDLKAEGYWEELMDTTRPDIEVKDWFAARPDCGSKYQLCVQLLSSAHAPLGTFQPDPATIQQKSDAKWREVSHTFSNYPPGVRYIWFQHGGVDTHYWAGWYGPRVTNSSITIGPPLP', 'glycan array binding signal (z-score)', -0.387),
  ('MLTim-4 (Mus musculus), Q6U7R4 (protein) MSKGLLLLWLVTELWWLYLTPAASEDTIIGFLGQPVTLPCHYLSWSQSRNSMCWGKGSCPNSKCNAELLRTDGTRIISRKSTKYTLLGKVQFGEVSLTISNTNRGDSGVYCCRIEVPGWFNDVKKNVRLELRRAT', 'glycan array binding signal (z-score)', 0.491),
  ('TbCVNHOb (Tuber borchii) (protein) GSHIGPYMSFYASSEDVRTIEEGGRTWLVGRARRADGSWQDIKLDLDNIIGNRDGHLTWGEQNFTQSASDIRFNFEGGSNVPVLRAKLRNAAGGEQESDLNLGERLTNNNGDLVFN', 'glycan array binding signal (z-score)', 4.24),
  ('C-Reactive Protein (Homo sapiens), P02741 (protein) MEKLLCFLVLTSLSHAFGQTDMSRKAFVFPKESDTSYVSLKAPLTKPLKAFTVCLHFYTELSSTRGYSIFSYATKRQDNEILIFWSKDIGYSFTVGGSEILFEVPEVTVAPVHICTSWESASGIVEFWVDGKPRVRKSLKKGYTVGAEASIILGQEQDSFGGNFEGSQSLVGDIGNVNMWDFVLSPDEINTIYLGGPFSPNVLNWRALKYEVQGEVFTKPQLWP', 'glycan array binding signal (z-score)', -0.603);

Given the entry RNase 1 (Bos taurus), P61823 (protein) MALKSLVLLSLLVLVLLLVRVQPSLGKETAAAKFERQHMDSSTSAASSSNYCNQMMKSRNLTKDRCKPVNTFVHESLADVQAVCSQKNVACKNGQTNCYQSYSTMSITDCRETGSSKYPNCAYKTTQANKHIIVACEGNPYVPVHFDASV , report its measured glycan array binding signal (z-score).
7.93
